Hey, just so you know, these numbers are from PubChem BioAssay (NCATS).

experiment: Confirmation and Secondary Assay for Modulators of Hemoglobin Beta Chain Splicing at IVS2 654 locus (AID 910); conditions: HeLa EGFP-654 splicing reporter, GFP fluorescence, 48 h; series mostly up to 46.1 µM;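 also: HeLa cells stably carrying EGFP split by mutant beta-globin IVS2-654 intron; per-well total GFP intensity by laser scanning cytometry after 2-day treatment; % of control where 0% means no effect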
Active and inactive are the calls of the source. Calls follow the shape of the dose curve; as a rule, active = well fitted activation curve with a large enough effect; inconclusive = small, poorly fitted or top-dose-only effect; inactive = flat fitted curve, though single readings scatter.
parameter.measured: outcome

// worked examples, outcome included
CNC(=O)Oc1cccc2c1OC(C)(C)C2; inactive
COc1cc2c3cc1Oc1c(OC)c(OC)cc4c1C(Cc1cccc(c1)Oc1ccc(c(O)c1)CC3N(C)CC2)N(C)CC4 (stereo unspecified); inactive
COP(N)(=O)SC (stereo unspecified); inactive
CC(=O)OC1CCC23C(=O)OC45CCC(C6=CC(=O)OC6)C4(C)CCC2C5CCC3(O)C1 (stereo unspecified); inactive
CC(=O)OC1CC[C@@]2(C)C3CC[C@]4(C)C(=O)CCC4C3CC[C@H]2C1 (stereo partly specified); inactive

Ask: Tell us which outcome value is on record for O=C1CC2OCC=C3CN4CC[C@@]56c7ccccc7N1C5C2C3CC46 (stereo partly specified)
Result: inactive

Ask: Tell us which outcome value is on record for CC1CC(O)[C@]2(O)[C@]13CC(=O)OC[C@@]2(C)[C@@](C)(O)C(=O)C3 (stereo partly specified)
Result: inactive

Ask: Tell us which outcome value is on record for CC(C)(O)C1C2OC(=O)C1[C@]1(O)CC3O[C@@]34C(=O)OC2[C@@]14C (stereo partly specified)
Result: inactive

Ask: Tell us which outcome value is on record for CC(C)CC(CN)CC(=O)O (stereo unspecified)
Result: inactive

Ask: Tell us which outcome value is on record for "O=C1C=CC(=O)c2c(O)cccc21"
Result: inactive

Ask: Tell us which outcome value is on record for CC1CC[C@@]2(OC1)OC1C(O)C3C4CC[C@H]5CC(O[C@@H]6O[C@@H](CO)[C@H](OC7OC(CO)C(O)C(OC8OCC(O)C(O)[C@H]8O)[C@@H]7O[C@@H]7OC(CO)[C@H](O)[C@@H](O[C@@H]8OC(CO)C(O)C(O)C8O)C7O)C(O)C6O)C(O)C[C@]5(C)C4CC[C@]3(C)C1C2C (stereo partly specified)
Result: inactive

----------
Molecular target: Peroxisome proliferator-activated receptor alpha (Homo sapiens)
Assay: qHTS assay for small molecule agonists of the peroxisome proliferator-activated receptor alpha (PPARalpha) signaling pathway (AID 651778); also: % of control where 0% means no effect
Details: PathHunter PPARalpha complementation, chemiluminescence, 6 h; active compounds read high
Excerpt: National Center for Advancing Translational Sciences [NCATS] NIH Chemical Genomics Center [NCGC] U.S. Environmental Protection Agency [EPA] National Institutes of Environmental Health Sciences [NIEHS] National Toxicology Program [NTP] The Peroxisome proliferator-activated receptors (PPARs) are lipid-activated transcription factors of the nuclear receptor superfamily with three distinct subtypes (alpha, garmma and beta/delta). […]
The source made the active and inactive calls. The call rests on the fitted dose curve; in most records, active means well fitted activation curve with a large enough effect; inconclusive means small, poorly fitted or top-dose-only effect; inactive means flat fitted curve, though single readings scatter.
parameter.measured: max response

// worked examples, max response included
CC(C)N1C(=O)c2ccccc2NS1(=O)=O; -0.187% (inactive)
O=C(Cl)C(Cl)(Cl)Cl; -1.02% (inactive)
O=C(O)COc1ccc(Cl)cc1Cl; 0.368% (inactive) [middle of 4 runs]
C=CCOC(C)=O; 7.33% (inactive)
CCSC(=O)Cl; 0.356% (inactive)
Nc1ccc(Br)cc1; -1.52% (inactive)
C[C@]12CC[C@H]3[C@@H](CCC4=CC(=O)CC[C@@]43C)[C@@H]1CC[C@@H]2O; -2.99% (inactive)
CCCC(=O)Cl; -5.49% (inactive)

Ask: Tell us which max response value is on record for "O=NN(CCO)CCO"
Result: -4.3% (inactive)
